Where do the numbers come from? From ChEMBL document CHEMBL1140823.

measurementNotes: Cytotoxicity against african green monkey Vero cells
Type: cell-based
experimentalParameters: chlorocebus sabaeus
property: CC50

Consider the following illustrative entries.
The recorded CC50 for COc1ccc(-c2nn3c(NC4CCCC4)cc(Cl)cc3c2-c2ccnc(NC3CCCC3)n2)cc1 is > 40 µM

The recorded CC50 for Fc1ccc(-c2nn3ccc(N4CCCC4)cc3c2-c2ccnc(NC3CCCC3)n2)cc1 is > 40 µM

The recorded CC50 for COCCOc1cc(NC2CCCC2)n2nc(-c3ccc(F)cc3)c(-c3ccnc(NC4CCCC4)n3)c2c1 is > 40 µM

State recorded CC50 for all listed compounds.
1. Fc1ccc(-c2nn3ccc(N4CCOCC4)cc3c2-c2ccnc(NC3CCCC3)n2)cc1
2. Nc1ccn2nc(-c3ccc(F)cc3)c(-c3ccnc(NC4CCCC4)n3)c2c1
3. COc1ccc(-c2nn3c(NC4CCCC4)cccc3c2-c2ccnc(NC3CCCC3)n2)cc1

# output
34 µM
20 µM
> 100 µM

====

measurementNotes: Cytotoxicity against african green monkey Vero cells
Assay type: cell-based
experimentalParameters: chlorocebus sabaeus
property: CC50

Consider the following illustrative entries.
The recorded CC50 for Nc1nc2c(ncn2COCCO)c(=O)[nH]1 [ACYCLOVIR] is > 200 µM

The recorded CC50 for CCOc1cc(NC2CCCC2)cc2c(-c3ccnc(NC4CCCC4)n3)c(-c3ccc(F)cc3)nn12 is 20.6 µM

State recorded CC50 for all listed compounds.
1. c1cc(-c2c(-c3ccc(OCC4CC4)cc3)nn3ccc(NC4CCCC4)cc23)nc(NC2CCCC2)n1
2. COCCNc1ccn2nc(-c3ccc(F)cc3)c(-c3ccnc(NC4CCCC4)n3)c2c1
3. CSc1cc(NC2CCCC2)cc2c(-c3ccnc(NC4CCCC4)n3)c(-c3ccc(F)cc3)nn12
4. COc1ccc(-c2nn3c(SC)cc(NC4CCCC4)cc3c2-c2ccnc(NC3CCCC3)n2)cc1
5. COc1ccc(-c2nn3c(Cl)cc(Cl)cc3c2-c2ccnc(NC3CCCC3)n2)cc1
6. CCSc1cc(NC2CCCC2)cc2c(-c3ccnc(NC4CCCC4)n3)c(-c3ccc(F)cc3)nn12

# output
1. > 40 µM
2. > 40 µM
3. > 40 µM
4. > 40 µM
5. > 40 µM
6. > 40 µM

State recorded CC50 for all listed compounds.
1. COc1ccc(-c2nn3c(SC(C)C)cc(NC4CCCC4)cc3c2-c2ccnc(NC3CCCC3)n2)cc1
2. CC(C)COc1ccc(-c2nn3ccc(NC4CCCC4)cc3c2-c2ccnc(NC3CCCC3)n2)cc1
3. COc1ccn2nc(-c3ccc(F)cc3)c(-c3ccnc(NC4CCCC4)n3)c2c1
4. Fc1ccc(-c2nn3ccc(Cl)cc3c2-c2ccnc(NC3CCCC3)n2)cc1
5. Fc1ccc(-c2nn3c(Cl)cc(Cl)cc3c2-c2ccnc(NC3CCCC3)n2)cc1
6. COc1cc(NC2CCCC2)n2nc(-c3ccc(F)cc3)c(-c3ccnc(NC4CCCC4)n3)c2c1
7. Fc1ccc(-c2nn3c(NC4CCCC4)cc(NC4CCCC4)cc3c2-c2ccnc(NC3CCCC3)n2)cc1
8. COc1ccc(-c2nn3ccc(NC4CCCC4)cc3c2-c2ccnc(NC3CCCC3)n2)cc1

# output
1: > 40 µM; 2: 27 µM; 3: > 36 µM; 4: > 40 µM; 5: > 40 µM; 6: > 40 µM; 7: > 40 µM; 8: 12.3 µM

State recorded CC50 for all listed compounds.
1. Fc1ccc(-c2nn3ccc(NC4CCCC4)cc3c2-c2ccnc(NC3CCCC3)n2)cc1
2. Fc1ccc(-c2nn3c(N4CCCCC4)cc(Cl)cc3c2-c2ccnc(NC3CCCC3)n2)cc1

# output
1. 18 µM
2. > 40 µM
